Every entry's value here was drawn from ChEMBL document CHEMBL1201862.

Test system: M14
EXPERIMENTAL_PROTOCOL: NCI tumour cell line growth inhibition, 48 h
Activity calls are given as the source filed them. Cut-off read from the data, not from the text of the source: active = GI50 up to about 1.1 µM and inactive = higher.
Outcomes: label 1 (active), label 0 (inactive)

- COMPOUND: "Cc1cc(OC(=O)Nc2ccc(Cl)cc2)ccc1C(=S)Nc1ccccc1"
  SYSTEM_NAME: "M14"
  CLASS_ASSIGNMENT: "label 0"
- COMPOUND: "O=C1NC2=C(CCCC/C2=N\\O)C12CCCCC2"
  SYSTEM_NAME: "M14"
  CLASS_ASSIGNMENT: "label 0"
- COMPOUND: "COc1ccc2nccc(NCCCN3CCN(CCCNc4ccnc5ccc(OC)cc45)CC3)c2c1"
  SYSTEM_NAME: "M14"
  CLASS_ASSIGNMENT: "label 1"
- COMPOUND: "O=C1N(CN2CCOCC2)CN(CN2CCOCC2)C(=O)N1Cc1ccc(-c2ccc(CN3C(=O)N(CN4CCOCC4)CN(CN4CCOCC4)C3=O)cc2)cc1"
  SYSTEM_NAME: "M14"
  CLASS_ASSIGNMENT: "label 0"
- COMPOUND: "CCN(CC)CC(=O)Nc1ccc2c(c1)C(=O)c1ccc(NC(=O)CN(CC)CC)cc1C2=O"
  SYSTEM_NAME: "M14"
  CLASS_ASSIGNMENT: "label 0"
- COMPOUND: "OCC(CCc1ccccc1I)C1=CCC2(CC1)OCCO2 (centres undefined)"
  SYSTEM_NAME: "M14"
  CLASS_ASSIGNMENT: "label 0"
- COMPOUND: "COc1cc2c(/C=C3/C(=O)N(c4ccccc4)c4ccccc43)c(Cl)[nH]c2cc1C"
  SYSTEM_NAME: "M14"
  CLASS_ASSIGNMENT: "label 0"
- COMPOUND: "COc1cc(/C=C/C(=O)c2c([O-])on[n+]2-c2ccccc2)ccc1O"
  SYSTEM_NAME: "M14"
  CLASS_ASSIGNMENT: "label 0"
- COMPOUND: "COP(=O)(OC)/C(=C/c1cn(C(c2ccccc2)(c2ccccc2)c2ccccc2)cn1)NC=O"
  SYSTEM_NAME: "M14"
  CLASS_ASSIGNMENT: "label 0"
